system: K4 kissing-loop RNA reporter; assay: apparent KD of K4 kissing-loop reporter; higher = weaker reporter binding; settings: Eterna round: R107; input ligand: tryptophan 2.4 mM;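 also: bound reporter read as fluorescence of individual clusters on recovered sequencing chips by microscopy, with normalized cluster intensities fitted with a binding model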
Measurement type: apparent KD of K4 kissing-loop reporter (nM)
Hi! Could you send only the number? It should be in nM, unit omitted.

The cases that follow already have their apparent KD of K4 kissing-loop reporter on record.
GCCAGAGCGCGAAGGAGCGCCGUGACAGGUUGCUGCCGUGGGCAGUGAUGUUGCUCAGUCCGGCAGGUAGGUCGCGUGCUCUGGC
372
AAGCAGUCCCUUGUAGUCAUCGAAGAUGAACGAGGACCGGUACGGCCGCCACUCGGAGUGAUGUUCCGAAGGCUGCAAAAUAAAA [MatMod 19 - Jieux - Exclusion - Tryptophan A]
310
GGUGCUGUCUGUGCCGCCUUCCUCGUUCCUCGAGGACCGGUACGGCCGCCACUCGAGUGAUGUUUGGGUAGCGAUCCCUGCUAGC [Bdazzled - #15 Exc. Tryptophan A]
917
AUCAUAUCUAGUCAGCCCAGUGAUGUUGGGCGAGGACCGGUACGGCCGCCACUCGCUUCGUUGCGGUGGCUGGCGUUACGACAAA [Inveusma]
137

Measured apparent KD of K4 kissing-loop reporter of AAACAUCACUGGGAGUGAUGUUCUCAGUGACGAGGACCGGUACGGCCGCCACUCGCGAGAGAACUAGUCUAGUCUUGACUGCAUU [Excl Tryptophan A V14] : 398

Measured apparent KD of K4 kissing-loop reporter of UGUAUGUGAUUUGAUACCAGACCAGCUGGUGGUAUAUGAGUGAUGUUCAUGUUGGUUUGGGUCCCUUGGCAGCAAAUCGCAUACU [KL-SSTheoB10] : 212

Measured apparent KD of K4 kissing-loop reporter of ACGCUGGUGAAUAACACUAGCGAAUAAUUCCGAGGACCGGUACGGCCGCCACUCGGCUAACUGCGAGUGAUGUUCGAUAAUAAAA [Mat - Mod of OpenEnded 3 - D10] : 57.5

Measured apparent KD of K4 kissing-loop reporter of CAAGGGCAAGUCGAUACCAGAGACACAUACCCGCAGUGAUGUUGCAGGAAACAGUUACUUCUCCCUUGGCAGCGAAUGCGACUUC [theeternabot_sameState_KL_Theo_B_45] : 332

Measured apparent KD of K4 kissing-loop reporter of GUUUUAUAGGAGGAUACCAGUACAAAUAAAGUGCAUUAAUAGUAGAGUGAUGUUCUAAAGUACCCUUGGCAGCUUAGUUUAAGUU [#26 K4 Theophylline B Exclusion] : 100

Measured apparent KD of K4 kissing-loop reporter of AAUAAUGAUGUUUAGGAUUUCCGAAUGGAAGGAGCGUGCGAAAGCACAGGUAGGUCGCCAGUGAUGUUGGGACCUGAGCAUCAAA [#SwitchBubble 6 #K4Late] : 629

Measured apparent KD of K4 kissing-loop reporter of GGUAGCAUGGCGGCCGCCACUUACUUCAAUAGGAGUGAUGUUCCUAUUACUAGUAGUGAAAUAAUAAGGACCGGGCCAUGCUACC : 96.8

Measured apparent KD of K4 kissing-loop reporter of GGACAAGUUUCCGAUACCAGCCUUUAUGCUGGACUAGCUUGAUCAGUGGCUAGUGAUGUUGGCCCUUGGCAGCGGGACUCUUCGG [theeternabot_exclusion_KL_Theo_B_10] : 218
